ASSAY DETAILS: Cmax in HIV infected patient plasma after 24 hrs
Format: ADME, organism-based
PROTOCOL CONDITIONS: human
MEASUREMENT KIND: Cmax (ng/mL)
Numbers only, in ng/mL.

Query block: Fill in the blank: the reported Cmax of "CC(C)(C)NC(=O)[C@@H]1C[C@@H]2CCCC[C@@H]2CN1C[C@@H](O)[C@H](Cc1ccccc1)NC(=O)[C@H](CC(N)=O)NC(=O)c1ccc2ccccc2n1" is ____.
Result block: 3670

###

ASSAY DETAILS: Ratio of AUC (0 to 24 hrs) in PBMC cellular compartment to plasma in HIV infected patient
Type: ADME, organism-based
PROTOCOL CONDITIONS: human, read-out: AUC_ratio
MEASUREMENT KIND: Kp
Answers are plain numbers.

Query block: Fill in the blank: the reported Kp of "CC(C)(C)NC(=O)[C@@H]1C[C@@H]2CCCC[C@@H]2CN1C[C@@H](O)[C@H](Cc1ccccc1)NC(=O)[C@H](CC(N)=O)NC(=O)c1ccc2ccccc2n1" is ____.
Result block: 2.75
